molecular target: L-lactate dehydrogenase (Plasmodium falciparum (isolate CDC / Honduras)); assay: PfLDH activity inhibition – cell lysate, 3D7 strain, counter-screen for P. falciparum growth inhibition project (AID 2304);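 also: 0% = vehicle and 100% = reference inhibitor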; settings: P. falciparum 3D7 crude extract, LDH APAD/NBT absorbance; at 2 µM; active compounds read high
Activity calls are given as the source filed them. No rule for the calls is given here.
Recorded Endpoint: inhibition

> print(dat)
                                   molecule          result
1  COc1ccc2nccc([C@@H](O)CN3CCC(NC(=O)c4cc5c(F)cc(F)cc5[nH]4)CC3)c2n1  -3% (inactive)
2  CCN(CCCN1CCCCC1)c1cc(C)nc(Nc2cc(Cl)cc(Cl)c2)n1  -3% (inactive)
3  O=C(/C=C/c1ccc(Cl)c(Cl)c1)NC1CCC(CN2CCC(c3nc4ccc(O)cc4[nH]3)CC2)CC1 (stereo not given)  -6% (inactive)
4            Clc1ccc(Cn2nc(Br)nc2Br)c(Cl)c1   2% (inactive)
5  COc1ccccc1CCNc1nc(C)cc(N[C@@H](Cc2ccccc2)C(=O)NCCc2ccccc2)n1  -3% (inactive)

* * *

Some compounds, each annotated with its measured growth inhibition.
test: inhibition of 3D7 malaria parasite growth – strain 3D7 (AID 2306);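 also: 0% = DMSO wells and 100% = chloroquine plus artemisinin control wells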; conditions: P. falciparum 3D7 erythrocytic growth, LDH absorbance, 72 h; at 2 µM; active compounds read high
Recorded Endpoint: growth inhibition (%)

> print(dat)
                                    compound  recorded.endpoint  quantitative.result
 1           COc1ccc2nccc(NN=Cc3ccccc3F)c2c1  growth inhibition                  103
 2  Cc1ccc2[nH]c(-c3ccc(C(=O)NCc4ccc(Cl)c(Cl)c4)cc3)nc2c1C  growth inhibition                   96
 3  O=C(NC1CCN(Cc2ccsc2)CC1)c1ccc(-c2cccc(C(F)(F)F)c2)s1  growth inhibition                   88
 4                    NC(=S)Cc1ccc2c(c1)OCO2  growth inhibition                   96
 5  COc1cc2nc(N3CCC(CNC(=O)/C=C/c4cccc(C)c4)CC3)nc(N)c2cc1OC  growth inhibition                  101
 6  COc1ccc(CN2CCCN(Cc3cccc(C(=O)Nc4ccc(C)c(F)c4)c3)CC2)cc1  growth inhibition                   83
 7  CCCCNS(=O)(=O)c1ccc(NC(=O)c2cc([N+](=O)[O-])ccc2Cl)cc1  growth inhibition                   92
 8          CCCCCCCCc1[nH]c(C)c(Br)c(=O)c1Br  growth inhibition                   96
 9  Cc1ccc(CON2C(N)=NC(N)=NC2(C)C)c(Cl)c1 (tested in a mixture with another compound)  growth inhibition                   91
10  O=C(Nc1cccc(N2CCC(NCCCn3ccnc3)CC2)c1)c1cccc(C(F)(F)F)c1  growth inhibition                  101
11  O=C(Nc1cc(Cl)cc(Cl)c1)N[C@H]1CCN(CCCCCNC(=O)[C@@H]2C[C@H]2c2ccc(Cl)c(Cl)c2)C1  growth inhibition                   99
12  CC(C)(C)c1ccc(NC(=O)c2ccc(CN3CCCN(Cc4cccc(Cl)c4)CC3)cc2)cc1  growth inhibition                   96
13    COc1ccc2ccccc2c1CNCC1CCN(CC2CCCCC2)CC1  growth inhibition                   98
14  CN(C)c1ccc(-c2ccc(C(=O)NC3CCN(Cc4ccc(F)cc4)CC3)s2)cc1  growth inhibition                   87
15  COc1ccc(NS(=O)(=O)c2cccc(C(=O)Nc3ccc(C(F)(F)F)cc3)c2)cc1N1CCN(CC(C)C)CC1  growth inhibition                   94
16  Cc1ccc(NS(=O)(=O)c2ccc(-c3ccccc3)cc2)c(Cn2cnc(N3CCCNCC3)cc2=O)c1  growth inhibition                   87
17  CCN1CCN(c2cc(C)c3cc(NC(=O)c4ccc(OC)c(OC)c4)ccc3n2)CC1  growth inhibition                   90
18  Cc1nnsc1C(=O)Nc1cccc(-c2cccc(-c3nc4ccccc4[nH]3)c2)c1  growth inhibition                  100
19     N=C1c2ccccc2CN1CC(=O)c1ccc(Cl)c(Cl)c1  growth inhibition                   98
20  CC1(C)N=C(N)N=C(N)N1OCCOc1ccc(Cc2ccccc2)cc1  growth inhibition                   94
21  O[C@@H](c1ccccc1)[C@@H]1CN(CCc2ccccc2)CC[C@@]1(O)c1ccccc1  growth inhibition                   97
22  COC(=O)c1cc2cccc(NC[C@@H](C)NC[C@H](O)c3cccc(Cl)c3)c2[nH]1  growth inhibition                   98
23  CC(C)(C)Nc1nc(Nc2cccc([N+](=O)[O-])c2)nc(-n2ccnc2)n1  growth inhibition                   98
24  Cc1[nH]c(C)c(-c2ccc(OCc3cc(F)cc(F)c3)nc2)c(=O)c1Cl  growth inhibition                   97
25  CS(=O)(=O)Nc1ccc2[nH]cc(C3CCN(CC(O)C4CCN(C(=O)/C=C/c5ccc(Cl)c(Cl)c5)CC4)CC3)c2c1 (centres undefined)  growth inhibition                  101
26     Cc1[nH]c(C)c(-c2cc3ccccc3o2)c(=O)c1Cl  growth inhibition                   92
27  CCc1cn2c3c(cc(C(=O)N[C@@H](Cc4cccc(F)c4)[C@H](O)CNC4CCOCC4)cc13)N(C)S(=O)(=O)CC2  growth inhibition                   97
28  O=C(Nc1ccc(-c2nc3ccccc3[nH]2)cc1)c1ccc(-c2cccc([N+](=O)[O-])c2)o1  growth inhibition                  101
29  CCNC[C@H]1CCCN1CCOc1ccc(-n2cnc3cc(-c4ccc(Cl)cc4)sc3c2=O)cc1OC  growth inhibition                   97
30  Cc1ccc2nc(Cl)c3cc(C(=O)NCCCN4CCCC4)sc3c2c1  growth inhibition                   89
31  CN(CCO)Cc1cccc(-c2ccc(NC(=O)c3cccc(C#N)c3)cc2)c1  growth inhibition                   97
32  Cc1cc(Cc2ccc(S(=O)(=O)c3cc4c(cc3O)CCN(C)CC4)cc2)ccc1Cl  growth inhibition                   96
33  O=C(Nc1ccc(Cl)cc1F)N[C@H]1CCN(CCCCCNC(=O)[C@@H]2C[C@H]2c2ccc(Cl)c(Cl)c2)C1  growth inhibition                   87
34  O=C(NCCCNc1nc2ccccc2[nH]1)c1cccc(OC(F)(F)F)c1  growth inhibition                  102
35  COc1cc(CNc2ncc(-c3ccsc3)c(-c3nccs3)n2)cc(OC)c1  growth inhibition                   86
36    NC(N)=NN=Cc1c2ccccc2c(Cl)c2ccc(Cl)cc12  growth inhibition                   98
37  CN1CCN(c2cc3c(cc2Br)CCN3C(=O)Nc2ccc(-c3cnc4ccccc4c3)cc2)CC1  growth inhibition                   99
38  Cc1cc(NC(=O)c2cccs2)ccc1OC1CCN(Cc2ccc(F)cc2)CC1  growth inhibition                   94
39  COc1cc(C=CC(=O)N2CCN(Cc3cccc(C)c3)CC2)ccc1OCc1c(C)noc1C  growth inhibition                   86
